Overview of reported IC50 across a group of molecules:
- subject.of.test: protein-protein interaction between Kras and SOS1 (biotin-tagged human Kras loaded with GDP, His-tagged human SOS1) (Homo sapiens (Human), UniProt P01116, G12D)
- experimental.protocol: Protein-protein interaction inhibition between Kras and SOS1 (KrasG12D-SOS PPI) using AlphaScreen
- Type: biochemical
- protocol.conditions: AlphaScreen; biotin-tagged human Kras loaded with GDP, His-tagged human SOS1; read-out: KRAS G12D-SOS PPI IC50
Numbered stars: 1 amine (or outer) side, 2 acyl side, 3 side chain; on linkers, the order of the positions; unused ones are H or OH. Square brackets hold non-standard residues; d marks the D form. Peptide text beside a SMILES is read from it. * marks the point of attachment. hPhe(3,5-F2-4-CF3) = N[C@@H](CCc1cc(F)c(C(F)(F)F)c(F)c1)C(=O)O; hPhe(3-Cl-4-CF3) = N[C@@H](CCc1ccc(C(F)(F)F)c(Cl)c1)C(=O)O; hPhe(3-F,4-CF3) = N[C@@H](CCc1ccc(C(F)(F)F)c(F)c1)C(=O)O; NEtPhe(4-Me) = CCN[C@@H](Cc1ccc(C)cc1)C(=O)O; NMePhe(4-Cl) = CN[C@@H](Cc1ccc(Cl)cc1)C(=O)O; NMedβ3hAla = C[C@H](CC(=O)[*:2])N(C)[*:1]; Pro(4,4-F2) = O=C(O)[C@@H]1CC(F)(F)CN1; NMeCha = CN[C@@H](CC1CCCCC1)C(=O)O; NMeChg = CN[C@H](C(=O)O)C1CCCCC1; NMeL = CN[C@@H](CC(C)C)C(=O)O; NMeV = CN[C@H](C(=O)O)C(C)C; d(β3hA) = C[C@@H](N)CC(=O)O; NMeS = CN[C@@H](CO)C(=O)O; NMeA = CN[C@@H](C)C(=O)O; NMeAib = CNC(C)(C)C(=O)O; Ac5c = NC1(C(=O)O)CCCC1; Aze = O=C(O)[C@@H]1CCN1; Ac4c = NC1(C(=O)O)CCC1; CH2CMe2OH = CC(C)(O)C*; Sar = CNCC(=O)O
Use nM as the unit, but write only the number.

Memo: CC[C@H](C)[C@@H]1NC(=O)[C@H](CC(C)C)N(C)C(=O)C[C@@H](C)N(C)C(=O)[C@H](C(C)C)NC(=O)C(C)(C)N(C)C(=O)[C@H](CC(C)C)NC(=O)[C@H](CCc2ccc(C(F)(F)F)c(F)c2)NC(=O)CN(C)C(=O)[C@H](Cc2ccc(Cl)cc2)N(C)C(=O)CN(C)C(=O)CN(C)C1=O [Compound 1084] (cyclo(I[Sar][Sar][NMePhe(4-Cl)][Sar][hPhe(3-F,4-CF3)]L[NMeAib]V[NMedβ3hAla][NMeL])) , reported IC50: 53

Memo: CC[C@H](C)[C@@H]1NC(=O)[C@H](CC(C)C)N(C)C(=O)C[C@@H](C)NC(=O)[C@H](C(C)C)N(C)C(=O)C2(CCCC2)NC(=O)[C@@H]2CCCN2C(=O)[C@H](CCc2ccc(C(F)(F)F)c(Cl)c2)NC(=O)CN(C)C(=O)[C@H](CC2CCCCC2)N(C)C(=O)[C@@H]2CCN2C(=O)[C@H](COCC(C)(C)O)N(C)C1=O [Compound 1122] (cyclo([Ac5c][NMeV][d(β3hA)][NMeL]I[NMeS](CH2CMe2OH)[Aze][NMeCha][Sar][hPhe(3-Cl-4-CF3)]P)) , reported IC50: 67

Memo: CC[C@H](C)[C@@H]1NC(=O)[C@H](CC(C)C)N(C)C(=O)C[C@@H](C)N(C)C(=O)[C@H](C2CCCCC2)N(C)C(=O)C2(CCC2)NC(=O)[C@@H]2CC(F)(F)CN2C(=O)[C@H](CCc2cc(F)c(C(F)(F)F)c(F)c2)NC(=O)CN(C)C(=O)[C@H](Cc2ccc(C)cc2)N(CC)C(=O)[C@@H]2CCN2C(=O)[C@H](C)N(C)C1=O [Compound 475] (cyclo([Ac4c][NMeChg][NMedβ3hAla][NMeL]I[NMeA][Aze][NEtPhe(4-Me)][Sar][hPhe(3,5-F2-4-CF3)][Pro(4,4-F2)])) , reported IC50: 51

###

- subject.of.test: protein-protein interaction between Kras and SOS1 (biotin-tagged human Kras loaded with GDP, His-tagged human SOS1) (Homo sapiens (Human), UniProt P01116, G12D)
- experimental.protocol: Protein-protein interaction inhibition between Kras and SOS1 (KrasG12D-SOS PPI) using AlphaScreen
- Assay type: biochemical
- protocol.conditions: AlphaScreen; biotin-tagged human Kras loaded with GDP, His-tagged human SOS1; read-out: KRAS G12D-SOS PPI IC50
Numbered stars: 1 amine (or outer) side, 2 acyl side, 3 side chain; on linkers, the order of the positions; unused ones are H or OH. Bridge positions count the residues as written; N and C are the ends. Square brackets hold non-standard residues; d marks the D form. Peptide text beside a SMILES is read from it. * marks the point of attachment. hPhe(4-CF3) = N[C@@H](CCc1ccc(C(F)(F)F)cc1)C(=O)O; NMePhe(4-Cl) = CN[C@@H](Cc1ccc(Cl)cc1)C(=O)O; X83 = Cc1ccc(CC[C@H](N[*:1])C(=O)[*:2])cc1; hPhe(4-Cl) = N[C@@H](CCc1ccc(Cl)cc1)C(=O)O; NMeCha = CN[C@@H](CC1CCCCC1)C(=O)O; NMeD = CN[C@@H](CC(=O)O)C(=O)O; NMeL = CN[C@@H](CC(C)C)C(=O)O; NMeV = CN[C@H](C(=O)O)C(C)C; d(β3hA) = C[C@@H](N)CC(=O)O; NMeA = CN[C@@H](C)C(=O)O; Piperidide = C1CCN(*)CC1; Ac5c = NC1(C(=O)O)CCCC1; Aze = O=C(O)[C@@H]1CCN1; Aib = CC(C)(N)C(=O)O; βAla = NCCC(=O)O; Sar = CNCC(=O)O
measure: IC50 (µM)
Use µM as the unit, but write only the number.

1. CC[C@H](C)[C@@H]1NC(=O)[C@H](C(C)C)N(C)C(=O)CCNC(=O)[C@H](CC(C)C)N(C)C(=O)C2(CCCC2)NC(=O)[C@H](CC(C)C)N(C)C(=O)[C@H](CCc2ccc(C(F)(F)F)cc2)NC(=O)CN(C)C(=O)[C@H](Cc2ccc(Cl)cc2)N(C)C(=O)CN(C)C(=O)CN(C)C1=O [Compound 923] (cyclo([Ac5c][NMeL][βAla][NMeV]I[Sar][Sar][NMePhe(4-Cl)][Sar][hPhe(4-CF3)][NMeL]))
0.23

Memo: CC[C@H](C)[C@@H]1NC(=O)[C@H](C)N(C)C(=O)C[C@@H](C)NC(=O)[C@H](CC(C)C)N(C)C(=O)C(C)(C)NC(=O)[C@H](CC(C)C)N(C)C(=O)[C@H](CCc2ccc(Cl)cc2)NC(=O)CN(C)C(=O)[C@H](Cc2ccc(Cl)cc2)N(C)C(=O)CN(C)C(=O)CN(C)C1=O [Compound 19] (cyclo([Aib][NMeL][d(β3hA)][NMeA]I[Sar][Sar][NMePhe(4-Cl)][Sar][hPhe(4-Cl)][NMeL])) , reported IC50: 0.05

Memo: CC[C@H](C)[C@@H]1NC(=O)[C@H](C)N(C)C(=O)C[C@@H](C(=O)N2CCCCC2)N(C)C(=O)[C@H](C(C)C)N(C)C(=O)C2(CCCC2)NC(=O)[C@@H]2CCCN2C(=O)[C@H](CCc2ccc(C)cc2)NC(=O)CN(C)C(=O)[C@H](CC2CCCCC2)N(C)C(=O)[C@@H]2CCN2C(=O)[C@H](C)N(C)C1=O [Compound 976] ([NMeA]I[NMeA][Aze][NMeCha][Sar][X83]P[Ac5c][NMeV][NMeD]-Piperidide; lactam N-11) , reported IC50: 0.18

###

Overview of reported pIC50 across a group of compounds:
- subject.of.test: protein-protein interaction between Kras and SOS1 (biotin-tagged human Kras loaded with GDP, His-tagged human SOS1) (Homo sapiens (Human), UniProt P01116, G12D)
- experimental.protocol: Protein-protein interaction inhibition between Kras and SOS1 (KrasG12D-SOS PPI) using AlphaScreen;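 also: kras produced in E. coli, Ni-coupled donor beads and streptavidin acceptor beads, excitation 680 nm with emission detected at 520–620 nm via singlet oxygen transfer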
- Format: biochemical
- protocol.conditions: AlphaScreen; biotin-tagged human Kras loaded with GDP, His-tagged human SOS1; read-out: KRAS G12D-SOS PPI IC50
Bridge positions count the residues as written; N and C are the ends. Square brackets hold non-standard residues; d marks the D form. Peptide text beside a SMILES is read from it. * marks the point of attachment. hPhe(3-Cl-4-CF3) = N[C@@H](CCc1ccc(C(F)(F)F)c(Cl)c1)C(=O)O; NMePhe(2-Cl) = CN[C@@H](Cc1ccccc1Cl)C(=O)O; NMeCha = CN[C@@H](CC1CCCCC1)C(=O)O; NMeF = CN[C@@H](Cc1ccccc1)C(=O)O; NMeD = CN[C@@H](CC(=O)O)C(=O)O; NMeL = CN[C@@H](CC(C)C)C(=O)O; NMeV = CN[C@H](C(=O)O)C(C)C; d(β3hA) = C[C@@H](N)CC(=O)O; NMeS = CN[C@@H](CO)C(=O)O; NMeA = CN[C@@H](C)C(=O)O; Piperidide = C1CCN(*)CC1; Pyrrolidide = C1CCN(*)C1; Ac5c = NC1(C(=O)O)CCCC1; Aze = O=C(O)[C@@H]1CCN1; Sar = CNCC(=O)O
Recall that pIC50 is obtained by taking minus log10 of the concentration measured in molar.

Worked examples, 2 compounds total:
1. CC[C@H](C)[C@@H]1NC(=O)[C@H](CC(C)C)N(C)C(=O)C[C@@H](C)NC(=O)[C@H](C(C)C)N(C)C(=O)C2(CCCC2)NC(=O)[C@@H]2CCCN2C(=O)[C@H](CCc2ccc(C(F)(F)F)c(Cl)c2)NC(=O)CN(C)C(=O)[C@H](CC2CCCCC2)N(C)C(=O)[C@@H]2CCN2C(=O)[C@H](Cc2ccccc2)N(C)C1=O [Compound 1628] (cyclo([Ac5c][NMeV][d(β3hA)][NMeL]I[NMeF][Aze][NMeCha][Sar][hPhe(3-Cl-4-CF3)]P))
7.17
2. CC[C@H](C)[C@@H]1NC(=O)[C@H](C)N(C)C(=O)C[C@@H](C(=O)N2CCCC2)N(C)C(=O)[C@H](C(C)C)N(C)C(=O)C2(CCCC2)NC(=O)[C@H](Cc2ccccc2Cl)N(C)C(=O)[C@H](CCc2ccc(C(F)(F)F)c(Cl)c2)NC(=O)CN(C)C(=O)[C@H](CC2CCCCC2)N(C)C(=O)CN(C)C(=O)CN(C)C1=O [Compound 2008] ([NMeA]I[Sar][Sar][NMeCha][Sar][hPhe(3-Cl-4-CF3)][NMePhe(2-Cl)][Ac5c][NMeV][NMeD]-Pyrrolidide; lactam N-11)
6.85

Memo: CC[C@H](C)[C@@H]1NC(=O)[C@H](CC(C)C)N(C)C(=O)C[C@@H](C(=O)N2CCCCC2)N(C)C(=O)[C@H](COC)N(C)C(=O)C2(CCCC2)NC(=O)[C@@H]2CCCN2C(=O)[C@H](CCc2ccc(C(F)(F)F)c(Cl)c2)NC(=O)CN(C)C(=O)[C@H](CC2CCCCC2)N(C)C(=O)[C@@H]2CCN2C(=O)[C@H](C)N(C)C1=O [Compound 484] ([NMeL]I[NMeA][Aze][NMeCha][Sar][hPhe(3-Cl-4-CF3)]P[Ac5c][NMeS](Me)[NMeD]-Piperidide; lactam N-11) , reported pIC50: 6.96

Data provenance: patent US20240148821A1
